Target: human HSP90 alpha protein (HSP90 N-terminal protein, amino acids 2-236) (Homo sapiens (Human))
Test: Measurement of HSP90-binding activity (AlphaScreen competitive assay, biotin-labeled geldanamycin)
Conditions: concentration inhibiting binding of biotin-labeled geldanamycin (40 nM) to purified HSP90 to 50% of control; read-out: HSP-binding activity IC50
metric.name: pIC50
Numbers only, as −log10 of the molar value.

Some compounds with known pIC50 results, for comparison:
>  <compound>
CCNc1cc(-n2nc(C(C)C)c3c(-n4cnc(-c5cnn(C(F)F)c5)c4)ccnc32)ccc1C(N)=O

>  <pIC50>
6.09

$$$$
>  <compound>
Cn1cc(-c2cn(-c3ccnc4c3c(C(F)(F)F)nn4-c3ccc(C(N)=O)cc3Br)cn2)cn1

>  <pIC50>
6.68

$$$$
>  <compound>
C=C(C)c1cc(C(N)=O)ccc1-n1nc(C(F)(F)F)c2c(-n3cnc(-c4cnn(C)c4)c3)ccnc21

>  <pIC50>
6.49

$$$$

For every record below, what is its pIC50?
1. CCc1cn(-c2ccc(C(N)=O)c(N[C@H]3CC[C@H](OC(=O)CN)CC3)c2)c2nccc(-c3cnc4ccccc4c3)c12 [Example 42, dimethanesulfonate]
2. CC(C)Nc1cc(-n2nc(C(C)C)c3c(-n4cnc(-c5cn[nH]c5)c4)ccnc32)ccc1C(N)=O
3. CCNc1cc(C(N)=O)ccc1-n1nc(C(F)(F)F)c2c(-n3cnc(-c4cnn(C)c4)c3)ccnc21
4. CC(C)c1nn(-c2ccc(C(N)=O)c(NCCc3ccccn3)c2)c2nccc(-c3cnc4ccccc4c3)c12

Result ::
1: 6.72; 2: 6.77; 3: 6.96; 4: 6.40

###

Molecular target: human HSP90 alpha protein (HSP90 N-terminal protein, amino acids 2-236) (Homo sapiens (Human))
Experiment: Measurement of HSP90-binding activity (AlphaScreen competitive assay, biotin-labeled geldanamycin)
Settings: concentration inhibiting binding of biotin-labeled geldanamycin (40 nM) to purified HSP90 to 50% of control; read-out: HSP-binding activity IC50
Hi there, I'd appreciate the recorded pIC50 for every entry that follows.
Numbers only, as −log10 of the molar value.

Some compounds with known pIC50 results, for comparison:
>  <compound>
Cc1cn(-c2ccc(C(N)=O)c(NCC(C)(C)O)c2)c2nccc(-c3cnc4ccccc4c3)c12 [Example 58]

>  <pIC50>
6.34

$$$$
>  <compound>
Cn1cc(-c2cn(-c3ccnc4c3c(C(F)(F)F)nn4-c3ccc(C(N)=O)cc3Cl)cn2)cn1 [Example 153]

>  <pIC50>
6.89

$$$$
>  <compound>
Cn1cc(-c2cn(-c3ccnc4c3c(C(F)(F)F)nn4-c3ccc(C(N)=O)cc3NC3CCCC3)cn2)cn1 [Example 166]

>  <pIC50>
6.85

$$$$
>  <compound>
CCNc1cc(C(N)=O)ccc1-n1nc(C(F)(F)F)c2c(-n3cnc(-c4cnn(C(C)C)c4)c3)ccnc21 [Example 187]

>  <pIC50>
6.21

$$$$

For every record below, what is its pIC50?
1. Cn1cc(-c2cn(-c3ccnc4c3c(C(F)(F)F)nn4-c3ccc(C(N)=O)cc3C#N)cn2)cn1 [Example 169]
2. CC(C)Nc1cc(-n2nc(C(F)(F)F)c3c(-n4cnc(-c5cccnc5)c4)ccnc32)ccc1C(N)=O [Example 179]
3. CCc1cn(-c2ccc(C(N)=O)c(NC3CCN(C)CC3)c2)c2nccc(-c3cnc4ccccc4c3)c12 [Example 71]

Result ::
[6.64, 6.42, 6.60]
